# Test system: Wolbachia pipientis
# testName: Anti-Wolbachia Cell-Based Screen
# Format: functional
# Parameters: scale not given: in the data most compounds retested in dose-response had high values
# testParameters: 5 µM
The campaign covered roughly 48,000 compounds. About 13,000 (27%) showed an effect of 50% or more. Some of the results follow.
Response key: condition met means Percent Effect >= 10%; condition not met means Percent Effect < 10%.

Evaluate c1cnc(-c2nc(CN3CCCC(Cn4cncn4)C3)cs2)nc1 (stereo unspecified) : Percent Effect at minimum 10%?
condition not met

Hello, I need to know if O=C(NCC1COCc2c(-c3ccncc3)nnn2C1)[C@H]1CCCO1.O=C(O)C(F)(F)F (stereo partly specified) has measured Percent Effect not below 10%. Thanks!
condition met

Please check the record CCCc1nc(CN2CCCC(Cn3cncn3)C2)no1 (stereo unspecified) and state if its Percent Effect is at or above 10%.
condition met

Kindly determine if Percent Effect recorded for Cc1ccsc1-c1nccn1CCN(C)S(C)(=O)=O is above or exactly 10%.
condition not met

Could you verify whether the entry CC(C)(C)c1nnc(CN2CCCC(Cn3cncn3)C2)o1 (stereo unspecified) shows Percent Effect of no less than 10%?
condition not met

Answer whether Percent Effect of CCN(CC)C(=O)[C@@H]1C[C@@H](N)CN1c1nc(N(C)C)nc(C)c1C is greater than or equal to 10%.
condition not met
